FYI, the data here is from the supplement of paper PMC11417369.

Test system: PfAP2-LT AP2 domain (GST-tagged)
Test: gcPBM binding intensity (ln(normalized median fluorescence intensity)); higher = stronger DNA binding
In all, about 25,000 sequences were measured (“ln(normalized median fluorescence intensity)”: median about 8.9, highest 2% from about 10 on). The sample holds the highest values, similar sequences and a random draw of the others, so the mix is not that of the screen.
// gcPBM binding intensity (ln) lookup, one value per entry
Hey, just send me the number, nothing else.

INSERT INTO results (seq_text, target_under_test, reported_value) VALUES
  ('TATTTTATCATTTGCACACGCACACCGACATAAAAA [CACACA_site4348]', 'PfAP2-LT AP2 domain (GST-tagged)', 9.26),
  ('AAAAAAAAAAAAAACACACACACACGCACATATACA [CACACA_site7288]', 'PfAP2-LT AP2 domain (GST-tagged)', 10.1),
  ('AAAATGAACTCACGAGCACACACACCCATATATATA [CACACA_site8247]', 'PfAP2-LT AP2 domain (GST-tagged)', 9.72);

Problem: What value of gcPBM binding intensity (ln) has been recorded for this entry: AAAAAAAAAAAAAAAACACACATACACGCACGCACA [CACACA_site7569]
Result: 9.35

Problem: Query (sequence): AACGCACGAGGACACACACACATATTTATATTTATA [CACACA_site6608] ; field requested: gcPBM binding intensity (ln)
Result: 9.82

Problem: Requested read-out: gcPBM binding intensity (ln). Entry: TTGGCATACAGACACACACACACACCCCCACATATA [CACACA_site590]
Result: 10.1

Problem: Looking for the measured gcPBM binding intensity (ln) of TAAATAAAAAAACACACACACATATATATATATATA [CACACA_site2269] , can you help?
Result: 10.2

Problem: Fill in the blank: the reported gcPBM binding intensity (ln) of AGCACCCACCAACACACACACACACCCACCCACCGA [CACACA_site368] is ____.
Result: 10.2

Problem: What value of measured gcPBM binding intensity (ln) is listed for TAAAAATATAAAACATGTACATATATGCATATATTT [XGTACX_site8093] ?
Result: 8.86

Problem: State the recorded gcPBM binding intensity (ln) for this entry: AACCATTGGGAAAGGGTGCACATATATATATATATA
Result: 10.1

Problem: Any idea what its gcPBM binding intensity (ln) is? The sequence is TTTTTTTTTTTTTGATGTACTTATTTAATAAGATAT [XGTACX_site376]
Result: 8.38

Problem: // gcPBM binding intensity (ln) lookup, key: TATAAATAAAAACACACACACATATATATATATATA [CACACA_site2319]
Result: 9.88

Problem: Given AAAAAAAAAAAAAACACACACACACGCATACACATA [CACACA_site7364] , state its recorded gcPBM binding intensity (ln).
Result: 10.2

====

System: PfAP2-LT AP2 domain (GST-tagged)
Test: gcPBM binding intensity (ln(normalized median fluorescence intensity)); higher = stronger DNA binding
Over roughly 25,000 sequences, “ln(normalized median fluorescence intensity)” has its median near 8.9; the highest 2% begin near 10. The sample as a whole holds a higher share of the highest values than the screen did.
value.kind: gcPBM binding intensity (ln)
// no unit string in output, number only

Problem: Look up gcPBM binding intensity (ln) for this sequence: TACTAAGAAGTATTTACACACCAACAAGGCGAAAAA [CACACA_site2944]
Result: 8.88

Problem: Would you kindly share the measured gcPBM binding intensity (ln) for TATATATGTTCAATATGTACATATATATAAGTGTAT [XGTACX_site5157] ?
Result: 8.79

Problem: Requested field: gcPBM binding intensity (ln). Item: CACAAAAAGAAACACACACACATATATATATATATA [CACACA_site999]
Result: 10

Problem: Field request: gcPBM binding intensity (ln) | item: AGGAATATAAAGTGCACACATAATTTGGGGGCAAAA [CACACA_site258]
Result: 9.25
